PROTOCOL_NOTES: melting temperature; fluorescence melt of hairpins on a sequencing array, two-state fit, raised by 9.35 °C to match UV melts
CONDITION_NOTES: sodium 0.088 M
Think of 50 °C as a floor: if Tm stands on it or above, it is label 1; beneath it, label 0.

Below are worked cases with known answers.
## Task # check: Tm of GCTCCAGGAAACTGAAGC (((.(((....))).))) is greater than or equal to 50 °C
## Result label 0

## Task Please answer likewise for GATCGTGTGTACGATC ((((((....))))))
## Result label 1

Others:
## Task # check: Tm of GATCGGGAAGCCGATC ((((((....)))))) is greater than or equal to 50 °C
## Result label 1

## Task Please answer likewise for GTTCGCCGAAAGGCTAAC (((.(((....))).)))
## Result label 0

## Task Please answer likewise for GATCTTTATGAAGATC ((((((....))))))
## Result label 0

## Task Please answer likewise for GCGCAGCGAAAGCGCCGC (((..((....))..)))
## Result label 1

## Task Please answer likewise for GGAACTGGAAACAGTTCC (((((((....)))))))
## Result label 1

## Task Please answer likewise for GTGAGGGGAAACCCTTGC (..((((....))))..)
## Result label 0

## Task Please answer likewise for GTTGACGAAAGTCGGAAC ((((((....)))..)))
## Result label 0

## Task Please answer likewise for GTGCGGGGAAACCCACAC (((.(((....))).)))
## Result label 1

## Task Please answer likewise for GCCCGCGAAAGCGAAGGC ((((((....)))..)))
## Result label 1

###

PROTOCOL_NOTES: melting temperature; fluorescence melt of hairpins on a sequencing array, two-state fit, raised by 9.35 °C to match UV melts
CONDITION_NOTES: sodium 0.088 M
MEASUREMENT_TYPE: Tm (°C)
The answer is to be given in °C; state only the numeric part.

Known Tm results, listed for orientation:
## Task Given GGCACGCCGAAAGGCGCC (((..(((....)))))) , state its recorded Tm.
## Result 40.3

## Task Please answer likewise for GTACACGAAAGTGCTAC ((((((....))).)))
## Result 39.9

## Task Please answer likewise for GATCAAGACCTTGATC ((((((....))))))
## Result 50.1

## Task Please answer likewise for GGGAACGGAAACGTCCCC (((.(((....))).)))
## Result 50.2

## Task Please answer likewise for GCGTTCGACGC ((((...))))
## Result 53.8

Others:
## Task Given GATCTTCTCAAGATC ((((((...)))))) , state its recorded Tm.
## Result 46.7

## Task Please answer likewise for GATCGTTTGGACGATC ((((((....))))))
## Result 56.3

## Task Please answer likewise for GGCCTCGAAAGAGGTGCC ((((((....)))..)))
## Result 47.6

## Task Please answer likewise for GCGGATCGAAAGATACGC (((.(((....))).)))
## Result 68.7

## Task Please answer likewise for GCCATCGGAAACAATGGC (((((.(....).)))))
## Result 44.7

## Task Please answer likewise for GATCACACAAGTGATC ((((((....))))))
## Result 56.2

## Task Please answer likewise for CGAACGGAAACGTGATCG ((((((....)))..)))
## Result 28.6

## Task Please answer likewise for GGCGGTTCGAAAGAAGCC (((..(((....))))))
## Result 41

## Task Please answer likewise for GGGAAACGAAAGTTCCC (((.(((....))))))
## Result 53.4

## Task Please answer likewise for GCGTTCTCACGC ((((....))))
## Result 50.6

## Task Please answer likewise for GAGTACGAAAGTAAGCTC ((((((....)))..)))
## Result 29.3

## Task Please answer likewise for GATCTCCATGAGATC ((((((...))))))
## Result 53.3

## Task Please answer likewise for GAAGAAGCGAAAGCTTTC (((..(((....))))))
## Result 30.1

## Task Please answer likewise for GGGCCTGCGAAAGCACCC (((..(((....))))))
## Result 50.5

## Task Please answer likewise for GCGATTGGAAACGATCGC (((((.(....).)))))
## Result 56.4

## Task Please answer likewise for GGCCTGGGAAACCAAGCC (((.(((....))).)))
## Result 45.4

## Task Please answer likewise for GTGGCGGGAAACCGCTGC (..((((....))))..)
## Result 47.9

## Task Please answer likewise for GGAATTGGAAACAGTTCC ((((.((....)).))))
## Result 42.9

## Task Please answer likewise for GATCACCTACGTGATC ((((((....))))))
## Result 56.6

## Task Please answer likewise for GTGTATGGAAACATACAC (((((((....)))))))
## Result 57.2

## Task Please answer likewise for CGTAGCGGAAACGCGACG (((.(((....))).)))
## Result 59.1

## Task Please answer likewise for GGGTAGGGAAACCTGTCC ((..(((....)))..))
## Result 32.3

###

PROTOCOL_NOTES: melting temperature; fluorescence melt of hairpins on a sequencing array, two-state fit, raised by 9.35 °C to match UV melts
CONDITION_NOTES: sodium 0.088 M
// NB: equality with 50 °C counts as NOT MET; only Tm strictly below is MET

## Task Does this sequence meet the criterion Tm < 50 °C? GAAGGTGAAAACCTTC ((((((....))))))
## Result NOT MET

## Task Please answer likewise for GATCGAGGCTTCGATC ((((((....))))))
## Result NOT MET

## Task Please answer likewise for GCCATCGAAAGATGTGGC ((((((....)))..)))
## Result MET

## Task Please answer likewise for GATCCGAAGGCGGATC ((((((....))))))
## Result NOT MET

## Task Please answer likewise for CGCTCCCGGAAACGGGCG (((..(((....))))))
## Result MET

## Task Please answer likewise for GTCTAAACGAAAGTTGAC (((..(((....))))))
## Result MET

## Task Please answer likewise for GGACAACGAAAGTTCTCC (((.(((....))).)))
## Result MET

## Task Please answer likewise for GATCTGGCGCAGATC ((((((...))))))
## Result MET

## Task Please answer likewise for GCCGTGCGAAAGCAAAGC ((..(((....)))..))
## Result MET

## Task Please answer likewise for GCACTTGGAAACAAATGC (((.(((....))).)))
## Result MET

## Task Please answer likewise for GATCCCGAAAGGGTTATC ((((((....)))..)))
## Result MET

###

PROTOCOL_NOTES: melting temperature; fluorescence melt of hairpins on a sequencing array, two-state fit, raised by 9.35 °C to match UV melts
CONDITION_NOTES: sodium 0.088 M
Recorded Tm by entry
The answer is to be given in °C; state only the numeric part.

Known Tm results, listed for orientation:
## Task Given GATCGGCTGCCGATC ((((((...)))))) , state its recorded Tm.
## Result 57.2

## Task Please answer likewise for GCCTAGCGAAAGCTCGGC (((.(((....))).)))
## Result 56.8

## Task Please answer likewise for GCGATCTGTCGC ((((....))))
## Result 51.6

## Task Please answer likewise for GTCTGAGGAAACTCGGAC (((.(((....))).)))
## Result 49.4

## Task Please answer likewise for GATCATAACCATGATC ((((((....))))))
## Result 47.4

Others:
## Task Given GCTCTCGAAAGAGTAGC ((((((....))).))) , state its recorded Tm.
## Result 47.2

## Task Please answer likewise for CAGCAGAAATGCTG (((((....)))))
## Result 53

## Task Please answer likewise for GCGAACCGTCGC ((((....))))
## Result 47.7

## Task Please answer likewise for GTGTAACCGAAAGGTCAC (((..(((....))))))
## Result 43.6

## Task Please answer likewise for GCATCGCGAAAGCGGGGC ((..(((....)))..))
## Result 63.1

## Task Please answer likewise for GCCTCAGAAATGAGGC ((((((....))))))
## Result 62.5

###

PROTOCOL_NOTES: melting temperature; fluorescence melt of hairpins on a sequencing array, two-state fit, raised by 9.35 °C to match UV melts
CONDITION_NOTES: sodium 0.088 M
Output schema: class label derived from Tm. Mapping: class 0: < 40 °C; class 1: ≥ 40 °C and < 50 °C; class 2: ≥ 50 °C

## Task Given CGAGCGGAAACGCCTTCG ((((((....)))..))) , name the class its Tm places it in.
## Result class 0

## Task Please answer likewise for GTACAAGGAAACTCGTAC ((((.((....)).))))
## Result class 0

## Task Please answer likewise for GGAGTCGAAAGACCGTCC ((((((....)))..)))
## Result class 0

## Task Please answer likewise for GAACAGGGAAACTTGTTC (((((.(....).)))))
## Result class 0

## Task Please answer likewise for GCGTCCCTACGC ((((....))))
## Result class 2

## Task Please answer likewise for GCAATGGAAACATTGC ((((((....))))))
## Result class 2

## Task Please answer likewise for GAGCTGGGAAACCGGTTC ((.(.((....)).).))
## Result class 0

## Task Please answer likewise for GTGGTGGGAAACTACCGC (.(((.(....).))).)
## Result class 1

Others:
## Task Given GAACCCCGAAAGGGTTTC (((.(((....))).))) , name the class its Tm places it in.
## Result class 1

## Task Please answer likewise for GCTAGGCGAAAGCCCGGC ((..(((....)))..))
## Result class 1

## Task Please answer likewise for GTAAGTGGAAACACTTAC (((((((....)))))))
## Result class 2

## Task Please answer likewise for GATAACGAAAGTTGATC ((((((....))).)))
## Result class 0
